Cited source for all entries: patent US7655665B2

- System: Aphis craccivoral
- method_notes: Insecticidal activity against Aphis craccivoral by immersing (dipping aphids on bean sprout)
- Format: in vivo
- particulars: 500 ppm; immersing (dipped 5 seconds); counted after 24 hours; 23° C.
Lab note: anything with mortality (%) (500 ppm) Aphis below 20% is marked TRUE; values at 20% or higher are marked FALSE.

Record excerpt, results attached:
[[record]]
compound = "C#CCOC1CCC([N+](=O)[O-])=C2N(Cc3ccc(Cl)nc3)CCN21 (racemic)"
class = "FALSE"

[[record]]
compound = "COCCOC1CCC([N+](=O)[O-])=C2N(Cc3cnc(Cl)s3)CCN21 (centres unmarked)"
class = "FALSE"

[[record]]
compound = "O=C(OC1CCC([N+](=O)[O-])=C2N(Cc3ccc(Cl)nc3)CCN21)c1ccccn1 (centres unmarked)"
class = "TRUE"

[[record]]
compound = "CCC(C)OC1CCC([N+](=O)[O-])=C2N(Cc3cnc(Cl)s3)CCN21 (mixture of isomers)"
class = "FALSE"

[[record]]
compound = "CCCOC1CCC([N+](=O)[O-])=C2N(Cc3ccc(Cl)nc3)CCCN21 (centres unmarked)"
class = "FALSE"


Query :: API: query returns whether the compound falls strictly under 20% in mortality (%) (500 ppm) Aphis. Query: CCCOC1CCC([N+](=O)[O-])=C2N(CC3CCOC3)CCCN21 (centres unmarked)
Result :: TRUE

Query :: I'd appreciate it if you could check whether O=[N+]([O-])C1=C2N(Cc3cnc(Cl)s3)CCCN2C(OC(C(F)(F)F)C(F)(F)F)CC1 (centres unmarked) has mortality (%) (500 ppm) Aphis smaller than 20%.
Result :: TRUE

Query :: For CC(C)OC1CCC([N+](=O)[O-])=C2N(Cc3ccc(Cl)nc3)CCCN21 (centres unmarked) , is the recorded mortality (%) (500 ppm) Aphis below the cut-off of 20%?
Result :: FALSE

----------
Each entry below carries its recorded mortality (%) (500 ppm) Aphis.
- Test system: Aphis craccivoral
- method_notes: Insecticidal activity against Aphis craccivoral by immersing (dipping aphids on bean sprout)
- Format: in vivo
- particulars: 500 ppm; immersing (dipped 5 seconds); counted after 24 hours; 23° C.
Kindly answer with a numeric value in %, unit omitted.

Worked cases, answers included:
[[record]]
molecule = "CCSC1CCC([N+](=O)[O-])=C2N(Cc3ccc(Cl)nc3)CCN21 (stereo not shown)"
observable = "mortality (%) (500 ppm) Aphis"
reported = 100

[[record]]
molecule = "CC(C)COC1CCC([N+](=O)[O-])=C2N(Cc3ccc(Cl)nc3)CCCN21 (stereo not shown)"
observable = "mortality (%) (500 ppm) Aphis"
reported = 23

[[record]]
molecule = "COCCOC1CCC([N+](=O)[O-])=C2N(Cc3ccc(Cl)nc3)CCN21 (racemic)"
observable = "mortality (%) (500 ppm) Aphis"
reported = 100


Query :: Any idea what mortality (%) (500 ppm) Aphis came out for O=[N+]([O-])C1=C2N(Cc3ccc(Cl)nc3)CCCN2C(OCC(F)(F)F)CC1 (stereo not shown) on Aphis craccivoral?
Result :: 88

----------
The molecules listed here are annotated with their mortality (%) (500 ppm) Nilaparvata lugens.
- System: Nilaparvata lugens
- method_notes: Insecticidal activity against Nilaparvata lugens (planthopper) by spraying
- Format: in vivo
- particulars: 500 ppm; spraying 2 ml; counted after 24 hours
Give the number; % is assumed, so skip it.

[[record]]
molecule = "O=C(OC1CCC([N+](=O)[O-])=C2N(Cc3ccc(Cl)nc3)CCN21)c1ccc(Cl)c(Cl)c1 (stereo not shown) [Compound 131]"
u = "%"
reported = 0

[[record]]
molecule = "CCCOC1CCC([N+](=O)[O-])=C2N(Cc3cnc(Cl)s3)CCN21 (racemic) [Compound 28]"
u = "%"
reported = 100

[[record]]
molecule = "CCOC1CCC([N+](=O)[O-])=C2N(Cc3ccc(Cl)nc3)CCCN21 (stereo not shown) [Compound 73]"
u = "%"
reported = 56


From here, focus on the item given below.
Query :: Which measured mortality (%) (500 ppm) Nilaparvata lugens value corresponds to CC1CC(O)N2CCN(CC3CCOC3)C2=C1[N+](=O)[O-] (stereo not shown) [Compound 68] ?
Result :: 7
